Test system: erythrocytes infected with 3D7 trophozoites
Type: cell-based, Plasmodium falciparum
Conditions: sheet Ratio; Exp2, 1hr
Peptide text beside a SMILES is read from it.
Attribute measured: Ratio of metabolite abundance, Exp2_1hr

INSERT INTO results (compound, system_tested, measurement) VALUES
  ('CC(=O)N[C@H]1[C@@H](OP(=O)(O)OP(=O)(O)OC[C@H]2O[C@@H](n3ccc(=O)[nH]c3=O)[C@H](O)[C@@H]2O)O[C@H](CO)[C@@H](O)[C@@H]1O [UDP-N-acetyl-D-glucosamine]', 'erythrocytes infected with 3D7 trophozoites', 0.9909),
  ('CC(C)[C@H](NC(=O)[C@H](C)NC(=O)[C@H](CC(=O)O)NC(=O)[C@@H]1CCCN1)C(=O)O [PDAV] (H-PDAV-OH)', 'erythrocytes infected with 3D7 trophozoites', 1.45),
  ('N[C@@H](COP(=O)(O)O)C(=O)O [3-Phospho-serine]', 'erythrocytes infected with 3D7 trophozoites', 1.092),
  ('O=CCCC(=O)O [Succinate semialdehyde]', 'erythrocytes infected with 3D7 trophozoites', 0.9462),
  ('O=P(O)(O)OC[C@H]1OC(O)(CO)[C@@H](O)[C@@H]1O (some centres unmarked) [Fructose-6-Phosphate]', 'erythrocytes infected with 3D7 trophozoites', 1.111);

###

Below: a set of entries, each annotated with reported Ratio of metabolite abundance, Exp3_3hr.
System: erythrocytes infected with 3D7 trophozoites
Assay type: cell-based, Plasmodium falciparum
Settings: sheet Ratio; Exp3, 3hr
Peptide text beside a SMILES is read from it.
Attribute measured: Ratio of metabolite abundance, Exp3_3hr

INSERT INTO measurements (compound, measurement) VALUES
  ('O=P(O)(O)OC[C@H](O)CO [sn-Glycerol 3-phosphate]', 3.645),
  ('CC(C)[C@H](NC(=O)[C@H](C)NC(=O)[C@H](CC(=O)O)NC(=O)[C@@H]1CCCN1)C(=O)O [PDAV] (H-PDAV-OH)', 1.38),
  ('C[C@H](NC(=O)[C@@H]1CCCN1)C(=O)N[C@@H](CCC(=O)O)C(=O)N[C@@H](Cc1ccccc1)C(=O)O [PAEF] (H-PAEF-OH)', 0.575),
  ('O=P(O)(OC[C@H](O)CO)OC1[C@H](O)[C@H](O)C(O)[C@H](O)[C@H]1O (stereo partly shown)', 1.067),
  ('CC(=O)N[C@@H](C)C(=O)O', 1.204),
  ('CC(C)[C@H](NC(=O)[C@@H]1CCCN1C(=O)[C@@H]1CCCN1)C(=O)N[C@@H](CCC(N)=O)C(=O)O [PPVQ] (H-PPVQ-OH)', 0.9388),
  ('CC(C)C[C@H](NC(=O)[C@@H](N)CC(=O)O)C(=O)N[C@@H](CO)C(=O)O [DLS] (H-Asp-Leu-Ser-OH)', 0.5821),
  ('N[C@@H](COP(=O)(O)O)C(=O)O', 0.7708),
  ('CC(C)[C@H](N)C(=O)N[C@@H](CC(=O)O)C(=O)O', 5.435),
  ('N[C@@H](CO)C(=O)N[C@@H](Cc1ccccc1)C(=O)NCC(=O)N[C@@H](CC(=O)O)C(=O)O [SFGD] (H-SFGD-OH)', 0.9269),
  ('O=CCCC(=O)O [Succinate semialdehyde]', 0.6244),
  ('O=C1O[C@H]([C@H](O)CO)[C@H](O)[C@H]1O', 2.843),
  ('Nc1nc2c(ncn2[C@@H]2O[C@H](COP(=O)(O)OP(=O)(O)O)[C@@H](O)[C@H]2O)c(=O)[nH]1', 0.5153),
  ('CCCCC/C=C\C/C=C\C/C=C\CCCCCCC(=O)O', 0.7277),
  ('Nc1ncnc2c1ncn2[C@@H]1O[C@H](COP(=O)(O)OP(=O)(O)OP(=O)(O)O)[C@@H](O)[C@H]1O', 0.8395),
  ('O=C(O)[C@H](Cc1ccccc1)NC(=O)[C@H](Cc1cnc[nH]1)NC(=O)[C@@H]1CCCN1 [PHF] (H-Pro-His-Phe-OH)', 1.168);
